This collection of values is drawn from patent US7041785B1.

biological target: B2 receptor (Oryctolagus cuniculus); assay: cell-based; settings: residual agonistic activity at 10 μg/mL in comparison with BK
Sequence (Q28642 whole entry): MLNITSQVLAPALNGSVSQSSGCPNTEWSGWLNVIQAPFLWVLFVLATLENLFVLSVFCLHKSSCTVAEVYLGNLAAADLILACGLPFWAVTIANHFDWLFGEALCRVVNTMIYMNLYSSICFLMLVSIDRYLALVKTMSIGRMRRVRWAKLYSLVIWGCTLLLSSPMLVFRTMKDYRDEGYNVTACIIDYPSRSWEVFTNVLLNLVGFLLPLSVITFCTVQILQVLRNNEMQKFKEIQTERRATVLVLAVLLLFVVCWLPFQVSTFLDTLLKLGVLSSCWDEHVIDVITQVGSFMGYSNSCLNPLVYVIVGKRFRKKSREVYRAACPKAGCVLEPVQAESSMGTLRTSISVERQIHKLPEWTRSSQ
property_label: Rb.J.V. α^E

Which Rb.J.V. α^E is reported with B2 receptor (Oryctolagus cuniculus) for this entry: "CC(=O)N[C@@H](CCCCN)C(=O)N[C@@H](CCCNC(=N)N)C(=O)N1CCC[C@H]1C(=O)N1C[C@H](O)C[C@H]1C(=O)NCC(=O)N[C@@H](Cc1ccccc1)C(=O)N[C@@H](CO)C(=O)N1CCC[C@H]1C(=O)N[C@@H](CC(C)C)C(=O)O" ?
0.03

----------
biological target: UniProt Q28642; test: cell-based
Non-standard residues stand in square brackets, D forms with d. Residues, ends and D or L forms follow the SMILES beside them. d2Nal = N[C@H](Cc1ccc2ccccc2c1)C(=O)O; Tic = O=C(O)[C@@H]1Cc2ccccc2CN1
property_label: Kb (µM)
Number only, in µM; omit the unit.

Which Kb is listed for CC[C@H](C)[C@H](NC(=O)[C@@H]1Cc2ccccc2CN1C(=O)[C@H](CO)NC(=O)[C@H](Cc1ccccc1)NC(=O)CNC(=O)[C@@H]1CCCN1C(=O)[C@@H]1CCCN1C(=O)[C@H](CCCNC(=N)N)NC(=O)[C@H](N)CCCNC(=N)N)C(=O)O [Compound 14, D-Arg(L-Tic^7, Ile^8)desArg^9BK] (H-[dR]RPPGFS[Tic]I-OH; N-terminus and C-terminus assumed) ?
6.46

Which Kb is listed for CC[C@H](C)[C@H](NC(=O)[C@@H](Cc1ccc2ccccc2c1)NC(=O)[C@H](CO)NC(=O)[C@H](Cc1ccccc1)NC(=O)CNC(=O)[C@@H]1CCCN1C(=O)[C@@H]1CCCN1C(=O)[C@H](CCCNC(=N)N)NC(=O)[C@H](N)CCCNC(=N)N)C(=O)O [Compound 23, D-Arg(D-βNal^7, Ile^8)desArg^9BK] (H-[dR]RPPGFS[d2Nal]I-OH; N-terminus and C-terminus assumed) ?
0.427
